Biological target: TRPC5 channel (Homo sapiens (Human), UniProt Q9UL62)
Sequence (Q9UL62 whole entry): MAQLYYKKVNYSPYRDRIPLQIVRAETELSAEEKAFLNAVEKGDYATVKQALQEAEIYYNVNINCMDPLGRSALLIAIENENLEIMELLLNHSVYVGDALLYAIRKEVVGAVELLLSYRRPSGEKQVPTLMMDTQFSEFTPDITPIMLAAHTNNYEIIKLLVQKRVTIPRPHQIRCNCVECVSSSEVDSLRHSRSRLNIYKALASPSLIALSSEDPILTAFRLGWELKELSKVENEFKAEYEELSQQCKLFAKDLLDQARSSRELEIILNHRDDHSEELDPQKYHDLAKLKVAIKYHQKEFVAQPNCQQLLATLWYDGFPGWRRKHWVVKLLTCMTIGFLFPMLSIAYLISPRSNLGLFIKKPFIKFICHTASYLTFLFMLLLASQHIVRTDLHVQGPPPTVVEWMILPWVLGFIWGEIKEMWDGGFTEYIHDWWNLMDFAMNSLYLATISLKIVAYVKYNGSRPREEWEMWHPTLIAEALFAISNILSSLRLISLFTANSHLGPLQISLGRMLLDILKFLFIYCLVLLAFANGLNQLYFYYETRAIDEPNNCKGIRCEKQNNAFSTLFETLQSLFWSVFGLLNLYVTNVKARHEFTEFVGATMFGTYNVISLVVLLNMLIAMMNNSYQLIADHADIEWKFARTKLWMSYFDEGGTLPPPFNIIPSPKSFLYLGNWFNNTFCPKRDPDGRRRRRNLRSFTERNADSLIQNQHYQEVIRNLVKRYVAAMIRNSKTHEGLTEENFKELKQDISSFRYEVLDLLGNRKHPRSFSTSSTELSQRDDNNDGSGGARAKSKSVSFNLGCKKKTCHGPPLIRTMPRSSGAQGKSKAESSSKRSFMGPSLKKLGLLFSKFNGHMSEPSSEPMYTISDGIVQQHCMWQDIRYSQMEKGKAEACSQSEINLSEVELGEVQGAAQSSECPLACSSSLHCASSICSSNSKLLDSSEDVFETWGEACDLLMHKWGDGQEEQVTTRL
Assay: Whole-cell patch clamp of TRPC5 current
Assay type: cell-based
Details: TRPC5-expressing HEK293 TREx cells, current activated by 80 μM LaCl3 and 1.4 μM free Ca2+ in pipette, IC50 estimated
Property: IC50; scope: individual compounds

Please indicate recorded IC50 of Cc1c(-c2ccc(Cl)cc2)sc2c1c(=O)n(CCCO)c(=O)n2C [Compound 25] measured with TRPC5 channel (Homo sapiens (Human), UniProt Q9UL62).
15.7 nM

Please indicate recorded IC50 of Cn1c(=O)n(CCCO)c(=O)c2c(Cc3ccc(Cl)cc3)c(-c3cccc(Cl)c3)oc21 [Compound 27] measured with TRPC5 channel (Homo sapiens (Human), UniProt Q9UL62).
< 1 nM

Please indicate recorded IC50 of Cn1c(=O)n(CCCO)c(=O)c2c(Cc3ccc(Cl)cc3)c(-c3cccc(OC(F)(F)F)c3)sc21 [Compound 26] measured with TRPC5 channel (Homo sapiens (Human), UniProt Q9UL62).
< 1 nM

Please indicate recorded IC50 of Cn1c(=O)n(CCCO)c(=O)c2c(Cc3ccc(Cl)cc3)c(Oc3cccc(OC(F)(F)F)c3)sc21 [Compound 1] measured with TRPC5 channel (Homo sapiens (Human), UniProt Q9UL62).
< 1 nM

Please indicate recorded IC50 of Cn1c(=O)n(CCCO)c(=O)c2c(Cc3ccc(Cl)cc3)c(Oc3cccc(Cl)c3)sc21 [Compound 2] measured with TRPC5 channel (Homo sapiens (Human), UniProt Q9UL62).
< 1 nM

Here's the next entry for you.
Please indicate recorded IC50 of Cn1c(=O)n(CCCO)c(=O)c2c(Cc3ccc(Cl)cc3)c(-c3ccc(Cl)cc3)sc21 [Compound 24] measured with TRPC5 channel (Homo sapiens (Human), UniProt Q9UL62).
1.84 nM

Provenance of the data: patent US9447114B2
